Target: human κ opioid receptor (OPRK1) (Homo sapiens)
Construct: expressed in transfected cells; host or cells: CHO-K1
Experiment: Determination of activities of κ receptor agonists: inhibition of forskolin-stimulated cAMP release (HTRF) in stably transfected CHO-K1 cells
Type: cell-based
Square brackets hold non-standard residues; d marks the D form. Side chains are listed from the residue outwards. Peptide text beside a SMILES is read from it. * marks the point of attachment. X28 = NCCCC[C@H](NC(=O)[C@H](CCCCN)NC(=O)C1(N)CCN(*)CC1)C(=O)O; X12 = CCOc1ccc(C[C@@H](NC(=O)[C@H](N)Cc2ccccc2)C(=O)*)cc1; X1 = NCCCC[C@@H](NC(=O)C1(N)CCN(*)CC1)C(N)=O; dAla(cPr) = N[C@H](CC1CC1)C(=O)O; Api = NC1(C(=O)O)CCNCC1
Please go through the items and note down their EC50.
One number for each entry, in nM.

CCOc1ccc(C[C@@H](NC(=O)[C@H](N)Cc2ccccc2)C(=O)N[C@H](CC2CC2)C(=O)N[C@H](CCCCN)C(=O)N2CCC(N)(C(=O)N[C@H](CCCCN)C(N)=O)CC2)cc1 [Compound 71] (H-[dF][dY](Et)[dAla(cPr)][dK]-X1; N-terminus assumed) = 0.041

Consider the following items and state reported EC50 for each.
1. CCOc1ccc(C[C@@H](NC(=O)[C@H](N)Cc2ccccc2)C(=O)N[C@H](CC(C)C)C(=O)N[C@H](CCCCN)C(=O)N2CCC(N)(C(=O)N[C@@H](CCCCN)C(=O)N[C@@H](CCCCN)C(=O)O)CC2)cc1 [Compound 6] (H-[dF][dY](Et)[dL][dK]-X28; N-terminus assumed)
2. CCOc1ccc(C[C@@H](NC(=O)[C@H](N)Cc2ccccc2)C(=O)N[C@H](CC(C)C)C(=O)N[C@H](CCCCN)C(=O)N2CCC(N)(C(=O)NCC(=O)NCC(=O)NCC(=O)N[C@H](CCCCN)C(=O)O)CC2)cc1 [Compound 58] (H-[Api]([dK-dL-X12])GGG[dK]-OH; N-terminus assumed)
3. CCOc1ccc(C[C@@H](NC(=O)[C@H](N)Cc2ccccc2)C(=O)N[C@H](CC(C)C)C(=O)N[C@H](CCCCN)C(=O)N2CCC(N)(C(=O)N[C@@H](CCCCN)C(=O)N[C@@H](CCCCN)C(=O)N[C@@H](CCCCN)C(=O)N[C@@H](CCCCN)C(=O)N[C@@H](CCCCN)C(=O)N[C@@H](CCCCN)C(=O)O)CC2)cc1 [Compound 14] (H-[Api]([dK-dL-X12])KKKKKK-OH; N-terminus assumed)
4. CC(C)C[C@@H](NC(=O)[C@@H](Cc1ccc(F)cc1)NC(=O)[C@H](N)Cc1ccccc1)C(=O)N[C@H](CCCCN)C(=O)N1CCC(N)(C(=O)N[C@@H](CCCCN)C(N)=O)CC1 [Compound 105]
5. CC(C)C[C@@H](NC(=O)[C@@H](Cc1ccc(Br)cc1)NC(=O)[C@H](N)Cc1ccccc1)C(=O)N[C@H](CCCCN)C(=O)N1CCC(N)(C(=O)N[C@H](CCCCN)C(N)=O)CC1 [Compound 119]

0.0402
0.0515
0.0655
0.0796
0.0615

Suppose we examine the compound CCOc1ccc(C[C@@H](NC(=O)[C@H](N)Cc2ccccc2)C(=O)N[C@H](CC(C)C)C(=O)N[C@H](CCCCN)C(=O)N2CCC(N)(C(=O)N[C@H](CCCCN)C(=O)N[C@H](CCCCN)C(=O)N[C@H](CCCCN)C(=O)N[C@H](CCCCN)C(=O)N[C@H](CCCCN)C(=O)N[C@H](CCCCN)C(N)=O)CC2)cc1 [Compound 25] (H-[Api]([dK-dL-X12])[dK][dK][dK][dK][dK][dK]-NH2; N-terminus assumed) ; what EC50 value has been reported?
0.0684

---

Please go through the items and note down their EC50.
Target: human κ opioid receptor (OPRK1) (Homo sapiens)
Construct: expressed in transfected cells; host or cells: CHO-K1
Test: Determination of activities of κ receptor agonists: inhibition of forskolin-stimulated cAMP release (HTRF) in stably transfected CHO-K1 cells
Format: cell-based
Square brackets hold non-standard residues; d marks the D form. Peptide text beside a SMILES is read from it. * marks the point of attachment. X5 = NCCCC[C@@H](NC(=O)CNC(=O)C1(N)CCN(*)CC1)C(N)=O; Piperidinyl(4-NH2,4-CONH2) = NC(=O)C1(N)CCN(*)CC1
Give bare numbers, in nM.

CCOc1ccc(C[C@@H](NC(=O)[C@H](N)Cc2ccccc2)C(=O)N[C@H](CC(C)C)C(=O)N[C@H](CCCCN)C(=O)N2CCC(N)(C(=O)NCC(=O)N[C@H](CCCCN)C(N)=O)CC2)cc1 [Compound 49] (H-[dF][dY](Et)[dL][dK]-X5; N-terminus assumed) = 0.0445

--- query ---
Suppose we examine the compound CCOc1ccc(C[C@@H](NC(=O)[C@H](N)Cc2ccccc2)C(=O)N[C@H](CC(C)C)C(=O)N[C@H](CCCCN)C(=O)N2CCC(N)(C(N)=O)CC2)cc1 [Compound 1] (H-[dF][dY](Et)[dL][dK]-{Piperidinyl(4-NH2,4-CONH2)}; N-terminus assumed) ; what EC50 value has been reported?
0.116

---

Target: human κ opioid receptor (OPRK1) (Homo sapiens)
Construct: expressed in transfected cells; host or cells: CHO-K1
Test: Determination of activities of κ receptor agonists: inhibition of forskolin-stimulated cAMP release (HTRF) in stably transfected CHO-K1 cells
Format: cell-based
Conditions: relative to Difelikefalin = 100.0
Square brackets hold non-standard residues; d marks the D form. Side chains are listed from the residue outwards. Peptide text beside a SMILES is read from it. * marks the point of attachment. X12 = CCOc1ccc(C[C@@H](NC(=O)[C@H](N)Cc2ccccc2)C(=O)*)cc1; Piperidin1yl(4-NH2,4-COOH) = NC1(C(=O)O)CCN(*)CC1; dAla(cPr) = N[C@H](CC1CC1)C(=O)O; Api = NC1(C(=O)O)CCNCC1
Please go through the items and note down their Relative Activity %.
Answers are plain numbers, in %.

Consider the following items and state reported Relative Activity % for each.
1. CCOc1ccc(C[C@@H](NC(=O)[C@H](N)Cc2ccccc2)C(=O)N[C@H](CC(C)C)C(=O)N[C@H](CCCCN)C(=O)N2CCC(N)(C(=O)NCC(=O)NCC(=O)NCC(=O)NCC(=O)N[C@@H](CCCCN)C(N)=O)CC2)cc1 [Compound 59] (H-[Api]([dK-dL-X12])GGGGK-NH2; N-terminus assumed)
2. CCOc1ccc(C[C@@H](NC(=O)[C@H](N)Cc2ccccc2)C(=O)N[C@H](CC2CC2)C(=O)N[C@H](CCCCN)C(=O)N2CCC(N)(C(=O)O)CC2)cc1 [Compound 68] (H-[dF][dY](Et)[dAla(cPr)][dK]-{Piperidin1yl(4-NH2,4-COOH)}; N-terminus assumed)

[874.9, 483.4]

---

Please go through the items and note down their Relative Activity %.
Biological target: human κ opioid receptor (OPRK1) (Homo sapiens, UniProt P41145)
Construct: expressed in transfected cells; host or cells: CHO-K1
Sequence (P41145 whole entry): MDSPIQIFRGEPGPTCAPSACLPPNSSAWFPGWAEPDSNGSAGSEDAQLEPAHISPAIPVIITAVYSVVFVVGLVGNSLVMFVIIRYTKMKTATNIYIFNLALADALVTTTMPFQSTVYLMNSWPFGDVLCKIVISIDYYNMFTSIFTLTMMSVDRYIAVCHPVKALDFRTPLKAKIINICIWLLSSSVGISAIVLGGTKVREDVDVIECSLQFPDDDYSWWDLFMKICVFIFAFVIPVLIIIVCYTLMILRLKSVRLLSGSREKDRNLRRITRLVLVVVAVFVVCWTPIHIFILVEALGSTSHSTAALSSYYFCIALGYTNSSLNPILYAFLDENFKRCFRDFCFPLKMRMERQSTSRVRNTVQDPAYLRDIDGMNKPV
Experiment: Determination of activities of κ receptor agonists: inhibition of forskolin-stimulated cAMP release (HTRF) in stably transfected CHO-K1 cells
Format: cell-based
Details: relative to Difelikefalin = 100.0
Square brackets hold non-standard residues; d marks the D form. Side chains are listed from the residue outwards. Peptide text beside a SMILES is read from it. * marks the point of attachment. X12 = CCOc1ccc(C[C@@H](NC(=O)[C@H](N)Cc2ccccc2)C(=O)*)cc1; X4 = NCCCC[C@H](NC(=O)C1(N)CCN(*)CC1)C(=O)O; Api = NC1(C(=O)O)CCNCC1; iPr = CC(C)*
Give the figure together with its unit, number first.

Some solved cases for reference:
CC(C)C[C@@H](NC(=O)[C@@H](Cc1ccc(C(C)C)cc1)NC(=O)[C@H](N)Cc1ccccc1)C(=O)N[C@H](CCCCN)C(=O)N1CCC(N)(C(=O)N[C@H](CCCCN)C(N)=O)CC1 = 423.1%
CCOc1ccc(C[C@@H](NC(=O)[C@H](N)Cc2ccccc2)C(=O)N[C@H](CC(C)C)C(=O)N[C@H](CCCCN)C(=O)N2CCC(N)(C(=O)N[C@H](CCCCN)C(=O)N[C@H](CCCCN)C(=O)N[C@H](CCCCN)C(=O)N[C@H](CCCCN)C(=O)N[C@H](CCCCN)C(N)=O)CC2)cc1 [Compound 23] (H-[Api]([dK-dL-X12])[dK][dK][dK][dK][dK]-NH2; N-terminus assumed) = 1096.0%
CCOc1ccc(C[C@@H](NC(=O)[C@H](N)Cc2ccccc2)C(=O)N[C@H](CC(C)C)C(=O)N[C@H](CCCCN)C(=O)N2CCC(N)(C(=O)NCC(=O)NCC(=O)NCC(=O)N[C@H](CCCCN)C(N)=O)CC2)cc1 [Compound 57] (H-[Api]([dK-dL-X12])GGG[dK]-NH2; N-terminus assumed) = 1181.3%

--- query ---
Suppose we examine the molecule CC(C)C[C@@H](NC(=O)[C@@H](Cc1ccc(OC(C)C)cc1)NC(=O)[C@H](N)Cc1ccccc1)C(=O)N[C@H](CCCCN)C(=O)N1CCC(N)(C(=O)N[C@@H](CCCCN)C(=O)O)CC1 [Compound 100] (H-[dF][dY](iPr)[dL][dK]-X4; N-terminus assumed) ; what Relative Activity % value has been reported?
848.0%

Sourced from patent US20260274891A1
